Every entry's value here was drawn from PubChem BioAssay AID2060899.

Tested on: 565726-208-R1-J5-PDC complex spheroids, growth inhibition
Experiment: Anticancer human tumor 565726-208-R1-J5-PDC patient-derived pancreatic adenocarcinoma cell line growth inhibition [RAS]
Settings: second compound 0.00949 µM; first compound 0.0316 µM; stronger effect = lower value
readout: viability, T/C (%)
Give bare numbers, in %.

Nc1ccn(C2OC(CO)C(O)C2(F)F)c(=O)n1 (stereo not drawn) + CCn1c(-c2cccnc2C(C)OC)c2c3cc(ccc31)N1CCOC(CC(NC(=O)C(C(C)C)N(C)C(=O)C3(F)CCN(C(=O)C#CC(C)(C)N(C)C)CC3)C(=O)N3CCCC(N3)C(=O)OCC(C)(C)C2)C1: 66

Quick batch: viability, T/C for everything below.
1. Cc1nc(N2CCC3(CC2)COC(C)C3N)c(CO)nc1Sc1ccnc(N)c1Cl (stereo not drawn) + CCn1c(-c2cccnc2C(C)OC)c2c3cc(ccc31)N1CCOC(CC(NC(=O)C(C(C)C)N(C)C(=O)C3(F)CCN(C(=O)C#CC(C)(C)N(C)C)CC3)C(=O)N3CCCC(N3)C(=O)OCC(C)(C)C2)C1
2. CC(=O)OC12COC1CC(O)C1(C)C(=O)C(O)C3=C(C)C(OC(=O)C(O)C(NC(=O)OC(C)(C)C)c4ccccc4)CC(O)(C(OC(=O)c4ccccc4)C21)C3(C)C (stereo not drawn) + CCn1c(-c2cccnc2C(C)OC)c2c3cc(ccc31)N1CCOC(CC(NC(=O)C(C(C)C)N(C)C(=O)C3(F)CCN(C(=O)C#CC(C)(C)N(C)C)CC3)C(=O)N3CCCC(N3)C(=O)OCC(C)(C)C2)C1
3. CC(Nc1ccc2c(c1)OCCn1cc(N3C(=O)OCC3C(F)F)nc1-2)C(N)=O (stereo not drawn) + CCn1c(-c2cc(N3CCN(C)CC3)cnc2C(C)OC)c2c3cc(ccc31)-c1csc(n1)CC(NC(=O)C1CC1C)C(=O)N1CCCC(N1)C(=O)OCC(C)(C)C2
4. CCN1CCN(Cc2ccc(Nc3ncc(F)c(-c4cc(F)c5nc(C)n(C(C)C)c5c4)n3)nc2)CC1 + CCn1c(-c2cccnc2C(C)OC)c2c3cc(ccc31)N1CCOC(CC(NC(=O)C(C(C)C)N(C)C(=O)C3(F)CCN(C(=O)C#CC(C)(C)N(C)C)CC3)C(=O)N3CCCC(N3)C(=O)OCC(C)(C)C2)C1
5. CC(=O)OC12COC1CC(O)C1(C)C(=O)C(O)C3=C(C)C(OC(=O)C(O)C(NC(=O)OC(C)(C)C)c4ccccc4)CC(O)(C(OC(=O)c4ccccc4)C21)C3(C)C (stereo not drawn) + CCn1c(-c2cc(N3CCN(C)CC3)cnc2C(C)OC)c2c3cc(ccc31)-c1csc(n1)CC(NC(=O)C1CC1C)C(=O)N1CCCC(N1)C(=O)OCC(C)(C)C2
6. CC(C)n1nc(-c2ccc3oc(N)nc3c2)c2c(N)ncnc21 + CCn1c(-c2cc(N3CCN(C)CC3)cnc2C(C)OC)c2c3cc(ccc31)-c1csc(n1)CC(NC(=O)C1CC1C)C(=O)N1CCCC(N1)C(=O)OCC(C)(C)C2

Solution:
[83.4, 17.3, 44.5, 84.4, 17.9, 15.7]

Exercise: Answer with the recorded viability, T/C for the molecule listed here: Cc1nc(N2CCC3(CC2)COC(C)C3N)c(CO)nc1Sc1ccnc(N)c1Cl (stereo not drawn) + CCn1c(-c2cc(N3CCN(C)CC3)cnc2C(C)OC)c2c3cc(ccc31)-c1csc(n1)CC(NC(=O)C1CC1C)C(=O)N1CCCC(N1)C(=O)OCC(C)(C)C2
Solution: 40.5

====

System: 565726-208-R1-J5-PDC complex spheroids, growth inhibition
Test: Anticancer human tumor 565726-208-R1-J5-PDC cell line growth inhibition [RAS];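 further: spheroids exposed to compounds for seven days before readout; 100% = DMSO vehicle control viability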
Details: second compound 0.003 µM; first compound 0.0316 µM; stronger effect = lower value
I'd be grateful if you could share measured viability, T/C for these entries.
One number for each entry, in %.

A selection of reference data follows.
CC(C)NCC(C(=O)N1CCN(c2ncnc3c2C(C)CC3O)CC1)c1ccc(Cl)cc1 (centres undefined) + CCn1c(-c2cccnc2C(C)OC)c2c3cc(ccc31)N1CCOC(CC(NC(=O)C(C(C)C)N(C)C(=O)C3(F)CCN(C(=O)C#CC(C)(C)N(C)C)CC3)C(=O)N3CCCC(N3)C(=O)OCC(C)(C)C2)C1: 105
Cc1nc(N2CCC3(CC2)COC(C)C3N)c(CO)nc1Sc1ccnc(N)c1Cl (centres undefined) + CCn1c(-c2cccnc2C(C)OC)c2c3cc(ccc31)N1CCOC(CC(NC(=O)C(C(C)C)N(C)C(=O)C3(F)CCN(C(=O)C#CC(C)(C)N(C)C)CC3)C(=O)N3CCCC(N3)C(=O)OCC(C)(C)C2)C1: 104
CC(C)n1nc(-c2ccc3oc(N)nc3c2)c2c(N)ncnc21 + CCn1c(-c2cccnc2C(C)OC)c2c3cc(ccc31)N1CCOC(CC(NC(=O)C(C(C)C)N(C)C(=O)C3(F)CCN(C(=O)C#CC(C)(C)N(C)C)CC3)C(=O)N3CCCC(N3)C(=O)OCC(C)(C)C2)C1: 46.5

Now consider a different molecule.
Exercise: # lookup: 565726-208-R1-J5-PDC complex spheroids, growth inhibition viability, T/C, key = NC1c2ccccc2OC12CCN(c1cnc3c(N4CCCc5ncccc54)n[nH]c3n1)CC2 (centres undefined) + CCn1c(-c2cc(N3CCN(C)CC3)cnc2C(C)OC)c2c3cc(ccc31)-c1csc(n1)CC(NC(=O)C1CC1C)C(=O)N1CCCC(N1)C(=O)OCC(C)(C)C2
Solution: 36.7

====

Kindly supply the reported viability, T/C values for the records listed here.
Test system: 565726-208-R1-J5-PDC complex spheroids, growth inhibition
Test: Anticancer human tumor 565726-208-R1-J5-PDC cell line growth inhibition [RAS];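 further: spheroids exposed to compounds for seven days before readout; 100% = DMSO vehicle control viability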
Settings: second compound 0.003 µM; first compound 3.16 µM; stronger effect = lower value
Excerpt: RAS pathway inhibitors in Combinations in Complex Spheroids A high-throughput screen of multi-cell type tumor spheroids was designed to identify active combinations of RAS pathway inhibitors and targeted small molecules. Complex spheroids include a stromal component modeled by human endothelial cells (HUVEC) and fibroblasts modeled by human mesenchymal stem cells (MSCs). […] Compounds. […] If the clinical Cmax for an agent had not been determined, the highest concentration tested was 10 microM. […]
Answers are plain numbers, in %.

CC1(O)CCCC1n1c(=O)c(C(F)F)cc2cnc(NC3CCN(S(C)(=O)=O)CC3)nc21 (configuration not stated) + CCn1c(-c2cc(N3CCN(C)CC3)cnc2C(C)OC)c2c3cc(ccc31)-c1csc(n1)CC(NC(=O)C1CC1C)C(=O)N1CCCC(N1)C(=O)OCC(C)(C)C2: 26.5

Attention now turns to another entry.
Exercise: Give the reported viability, T/C for this molecule. CC(Nc1ccc2c(c1)OCCn1cc(N3C(=O)OCC3C(F)F)nc1-2)C(N)=O (configuration not stated) + CCn1c(-c2cccnc2C(C)OC)c2c3cc(ccc31)N1CCOC(CC(NC(=O)C(C(C)C)N(C)C(=O)C3(F)CCN(C(=O)C#CC(C)(C)N(C)C)CC3)C(=O)N3CCCC(N3)C(=O)OCC(C)(C)C2)C1
Solution: 62.9

====

Tested on: 565726-208-R1-J5-PDC complex spheroids, growth inhibition
Assay: Anticancer human tumor 565726-208-R1-J5-PDC cell line growth inhibition [RAS];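 further: spheroids exposed to compounds for seven days before readout; 100% = DMSO vehicle control viability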
Details: second compound 0.00949 µM; first compound 0.0316 µM; stronger effect = lower value
// NB: equality with 70% counts as 0; only viability, T/C strictly below is 1

Before answering, review these 2 worked examples.
CC(C)NCC(C(=O)N1CCN(c2ncnc3c2C(C)CC3O)CC1)c1ccc(Cl)cc1 (stereo not drawn) + CCn1c(-c2cccnc2C(C)OC)c2c3cc(ccc31)N1CCOC(CC(NC(=O)C(C(C)C)N(C)C(=O)C3(F)CCN(C(=O)C#CC(C)(C)N(C)C)CC3)C(=O)N3CCCC(N3)C(=O)OCC(C)(C)C2)C1: 0
CC(C)n1nc(-c2ccc3oc(N)nc3c2)c2c(N)ncnc21 + CCn1c(-c2cccnc2C(C)OC)c2c3cc(ccc31)N1CCOC(CC(NC(=O)C(C(C)C)N(C)C(=O)C3(F)CCN(C(=O)C#CC(C)(C)N(C)C)CC3)C(=O)N3CCCC(N3)C(=O)OCC(C)(C)C2)C1: 1

Exercise: Strictly below 70% in viability, T/C? O=C(c1ccc(F)c(F)c1Nc1ccc(I)cc1F)N1CC(O)([C@@H]2CCCCN2)C1 + CCn1c(-c2cccnc2C(C)OC)c2c3cc(ccc31)N1CCOC(CC(NC(=O)C(C(C)C)N(C)C(=O)C3(F)CCN(C(=O)C#CC(C)(C)N(C)C)CC3)C(=O)N3CCCC(N3)C(=O)OCC(C)(C)C2)C1
Solution: 1

Exercise: Input C=CC(=O)N1CCN(c2nc(OCC3CCCN3C)nc3c(F)c(-c4nc(N)cc(C)c4C(F)(F)F)c(Cl)cc23)C(C)C1 (stereo not drawn) + CCn1c(-c2cc(N3CCN(C)CC3)cnc2C(C)OC)c2c3cc(ccc31)-c1csc(n1)CC(NC(=O)C1CC1C)C(=O)N1CCCC(N1)C(=O)OCC(C)(C)C2 ; condition: viability, T/C strictly below 70%. Does it hold?
Solution: 1

Exercise: Hello, I'm reviewing records and need to know if viability, T/C of C[C@@H](NC(=O)c1ncnc(N)c1Cl)c1ncc(C(=O)Nc2cc(C(F)(F)F)c(Cl)cn2)s1 + CCn1c(-c2cc(N3CCN(C)CC3)cnc2C(C)OC)c2c3cc(ccc31)-c1csc(n1)CC(NC(=O)C1CC1C)C(=O)N1CCCC(N1)C(=O)OCC(C)(C)C2 is below 70%. Could you check?
Solution: 1

Exercise: I wonder whether C=CC(=O)Nc1cc(Nc2nccc(-c3cn(C)c4ccccc34)n2)c(OC)cc1N(C)CCN(C)C + CCn1c(-c2cccnc2C(C)OC)c2c3cc(ccc31)N1CCOC(CC(NC(=O)C(C(C)C)N(C)C(=O)C3(F)CCN(C(=O)C#CC(C)(C)N(C)C)CC3)C(=O)N3CCCC(N3)C(=O)OCC(C)(C)C2)C1 has viability, T/C below 70%. Can you tell?
Solution: 0

Exercise: Take the compound NC1c2ccccc2OC12CCN(c1cnc3c(N4CCCc5ncccc54)n[nH]c3n1)CC2 (stereo not drawn) + CCn1c(-c2cccnc2C(C)OC)c2c3cc(ccc31)N1CCOC(CC(NC(=O)C(C(C)C)N(C)C(=O)C3(F)CCN(C(=O)C#CC(C)(C)N(C)C)CC3)C(=O)N3CCCC(N3)C(=O)OCC(C)(C)C2)C1 and say whether its viability, T/C is less than 70%.
Solution: 0

Exercise: Please let me know if NC1c2ccccc2OC12CCN(c1cnc3c(N4CCCc5ncccc54)n[nH]c3n1)CC2 (stereo not drawn) + CCn1c(-c2cc(N3CCN(C)CC3)cnc2C(C)OC)c2c3cc(ccc31)-c1csc(n1)CC(NC(=O)C1CC1C)C(=O)N1CCCC(N1)C(=O)OCC(C)(C)C2 shows viability, T/C below 70%.
Solution: 1
